B1: WDFY1 (parent)
chain: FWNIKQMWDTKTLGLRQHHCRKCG

Variants of: B1
Run description: protein stability index of a GFP-peptide fusion (GPS, HEK-293T) (PSI 1-6); higher = more stable;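 further: lentivirally expressed fusions sorted by FACS into six bins by GFP to DsRed ratio, PSI derived from sequencing read proportions per bin multiplied by bin number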
Conditions: c terminus: a fixed tail appended
Each record here notes measured protein stability index.
Property: protein stability index

>>> value_measured("Q6Y")
1.92
>>> value_measured("G24C")
2.22
>>> value_measured("L13V")
2.15
>>> value_measured("H19A")
2.14
>>> value_measured("D9G")
1.73
>>> value_measured("K11Q")
1.77
>>> value_measured("W8H")
2.24
>>> value_measured("T10N")
2.04
>>> value_measured("G24D")
2.15
>>> value_measured("R21L")
1.67
>>> value_measured("K22D")
3.4
